Biological target: Dual specificity protein phosphatase 6 (Homo sapiens)
Experiment: DUSP6 inhibitors restoring Erk phosphorylation by chemical complementation, primary imaging in DUSP6-transfected HeLa (AID 609);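 also: phospho-Erk level distribution per well compared with pooled transfected vehicle control wells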
Conditions: HeLa MKP-3 transfected, phospho-Erk imaging KS statistic; at 10 µM; stronger effect = higher value; cells stimulated with TPA for 15 min
Entries and their inhibition values follow.
value.kind: inhibition (%)

[[record]]
molecule = "N#Cc1nc(-c2ccc(Cl)cc2)oc1N1CCCCC1"
measurement_units = "%"
val = 9.61

[[record]]
molecule = "CCOC(=O)C1=C(C)N=C2SC(C)C(=O)N2C1c1cccc(F)c1 (stereo not drawn)"
measurement_units = "%"
val = 5.42

[[record]]
molecule = "Cc1ccc2[nH]c3c(N4CCOCC4)ncnc3c2c1"
measurement_units = "%"
val = -1.98

[[record]]
molecule = "COc1cccc(-c2nnc3sc(C4CCCCC4)nn23)c1"
measurement_units = "%"
val = -13.3

[[record]]
molecule = "CCCc1nc(NC2CCCCC2)c(C#N)c2c1COC(C)(C)C2"
measurement_units = "%"
val = -3.95

[[record]]
molecule = "O=C(NCCO)c1cccc2c1C(=O)c1ccccc1-2"
measurement_units = "%"
val = 7.73

[[record]]
molecule = "Cc1nnc(SCCC#N)n(CCC#N)c1=O"
measurement_units = "%"
val = 1.12

[[record]]
molecule = "CC(C)Cc1nc2n[nH]c(N)c2c2c1CCC2"
measurement_units = "%"
val = -1.75

[[record]]
molecule = "O=C1OC2CCC1(c1ccccc1)C2 (stereo not drawn)"
measurement_units = "%"
val = -5.89

[[record]]
molecule = "Cc1cccc(OCC(=O)N2CCC(N3CCOCC3)CC2)c1"
measurement_units = "%"
val = 17

[[record]]
molecule = "CCn1cc(C(=O)NCCCN(C)C)c(=O)c2cc(F)c(N3CCN(C)CC3)cc21"
measurement_units = "%"
val = -7.28

[[record]]
molecule = "Nc1nnc(-c2cccc(Cl)c2Cl)c(N)n1"
measurement_units = "%"
val = 1.48

[[record]]
molecule = "COc1cc(C)nc(Oc2ccc(OCCOc3ccc(C)cc3)nn2)n1"
measurement_units = "%"
val = 2.46

[[record]]
molecule = "CN1CCN(C(=O)CSc2nc(-c3cccs3)ccc2C#N)CC1"
measurement_units = "%"
val = 6.04

[[record]]
molecule = "Cn1c(=O)n(CCc2ccccc2)c(=O)c2c1ncn2Cc1ccccc1"
measurement_units = "%"
val = -6.48

[[record]]
molecule = "CC(C)Cc1nc(NCCN2CCOCC2)c(C#N)c2c1COC(C)(C)C2"
measurement_units = "%"
val = -6.86

[[record]]
molecule = "Cc1cccc(C)c1OCC(O)CNS(=O)(=O)c1ccccc1C(=O)N1CCOCC1 (stereo not drawn)"
measurement_units = "%"
val = 2.71

[[record]]
molecule = "CN1C(=O)c2c(sc3c2CCCC3)NC1c1ccccc1O (stereo not drawn)"
measurement_units = "%"
val = -2.59

[[record]]
molecule = "Fc1ccccc1-c1nc(NCCCN2CCOCC2)c2ccccc2n1"
measurement_units = "%"
val = 27.5

[[record]]
molecule = "COc1cc(-n2c3nc4ccccc4nc3c3c(=O)n(Cc4ccco4)cnc32)cc(OC)c1OC"
measurement_units = "%"
val = -3.5

[[record]]
molecule = "CC1(C)Cc2c(sc3c4nnnn4c4nnnn4c23)CO1"
measurement_units = "%"
val = 20.8

[[record]]
molecule = "O=C(NCCN1CCCCC1)c1ccc(=O)oc1"
measurement_units = "%"
val = 4.37

[[record]]
molecule = "O=C1OC(Nc2ccc(Br)cn2)c2ccccc21 (stereo not drawn)"
measurement_units = "%"
val = -8.27

[[record]]
molecule = "CC1(C)Cc2c(sc3nc4n(c(=O)c23)CCC4)CO1"
measurement_units = "%"
val = 2.71

[[record]]
molecule = "CCOC(=O)Cc1nnc(Nc2cccc(O)c2)c2ccccc12"
measurement_units = "%"
val = -15.1

[[record]]
molecule = "COc1cccc(NC(=O)CSC2=C(C#N)C(c3ccco3)C3=C(CCCC3=O)N2)c1 (stereo not drawn)"
measurement_units = "%"
val = -3.98

[[record]]
molecule = "c1ccc(-c2nnc3sc(Cc4cccs4)nn23)cc1"
measurement_units = "%"
val = 11.9

[[record]]
molecule = "Cc1ccc2[nH]c3c(NCCN4CCOCC4)ncnc3c2c1"
measurement_units = "%"
val = -6.06

[[record]]
molecule = "COCCCC/C(=N\\OCCN)c1ccc(C(F)(F)F)cc1"
measurement_units = "%"
val = 9.37

[[record]]
molecule = "CCCCOC(=O)CSC1=C(C#N)C(c2ccccc2OC)C(C#N)C(=O)N1 (stereo not drawn)"
measurement_units = "%"
val = 9.39

[[record]]
molecule = "Cn1c(=O)cc(NCc2ccccc2)[nH]c1=O"
measurement_units = "%"
val = -0.624

[[record]]
molecule = "Cc1cc(C)n2c3c(c(C#N)c2n1)CC(C)(C)OC3"
measurement_units = "%"
val = 11.3

[[record]]
molecule = "Oc1ccccc1-c1nc(NCCN2CCOCC2)c2ccccc2n1"
measurement_units = "%"
val = "1.6e-07"

[[record]]
molecule = "Nc1ccc(S(=O)(=O)Nc2ncccn2)cc1"
measurement_units = "%"
val = 5.79

[[record]]
molecule = "CCCOc1ccc(-c2nnc(N)s2)cc1"
measurement_units = "%"
val = -4.27

[[record]]
molecule = "O=C(O)c1ccc(COc2c(F)c(F)c(F)c(F)c2F)o1"
measurement_units = "%"
val = -3.5

[[record]]
molecule = "c1coc(-c2nnc3sc(Cc4cccs4)nn23)c1"
measurement_units = "%"
val = -13.3

[[record]]
molecule = "CC(C)CN1C(=O)NC(NC(=O)c2cccnc2)(C(F)(F)F)C1=O (stereo not drawn)"
measurement_units = "%"
val = 1.75

[[record]]
molecule = "C#CCN(C)Cc1ccccc1"
measurement_units = "%"
val = 13.3

[[record]]
molecule = "Cc1nc(N2CCN(Cc3ccccc3)CC2)c(C#N)c2c1COC(C)(C)C2"
measurement_units = "%"
val = 3.66

[[record]]
molecule = "CCn1cc(C(=O)O)c(=O)c2cc(F)c(N3CCNCC3)cc21"
measurement_units = "%"
val = -6.41

[[record]]
molecule = "Cc1ccc2[nH]c3c(N4CCN(Cc5ccc6c(c5)OCO6)CC4)ncnc3c2c1"
measurement_units = "%"
val = -3.5

[[record]]
molecule = "COC(=O)c1ccc(=O)n(Cc2ccc3c(c2)OCO3)c1"
measurement_units = "%"
val = 2.46

[[record]]
molecule = "COC(=O)COn1c(SCC(=O)OC)nc2ccccc2c1=O"
measurement_units = "%"
val = -8.59

[[record]]
molecule = "CN1CCC2(CC1)C1CN(C)CC=C1C(C#N)=C(N)C2(C#N)C#N (stereo not drawn)"
measurement_units = "%"
val = 2.46

[[record]]
molecule = "O=C(c1ccccc1)C(CCC(CN1CCOCC1)C(=O)c1ccccc1)CN1CCOCC1 (stereo not drawn)"
measurement_units = "%"
val = 1.75

[[record]]
molecule = "COc1cccc(C2/C(=C(/O)c3ccc(C)cc3)C(=O)C(=O)N2Cc2ccco2)c1 (stereo not drawn)"
measurement_units = "%"
val = 4.72

[[record]]
molecule = "Nc1ccc2cn[nH]c2c1"
measurement_units = "%"
val = 5.79


Data credit: PubChem BioAssay
